This listing pairs molecules with measured remaining at 48 h, 0.1 µM.
# experimental details: Chemical stability of the compound in phosphate buffer at pH 8 assessed as compound remaining at 0.1 uM after 48 hrs by RP-HPLC analysis
# Type: physicochemical
# test conditions: read-out: Stability
Give your result in % as a bare value.

The following molecules have reported results that may help.
COc1ccc2cc(C(C)C(=O)NCCCCC(NC(=O)C(C)c3ccc4cc(OC)ccc4c3)C(=O)NCCCCC(NC(=O)C(CCCCNC(=O)C(C)c3ccc4cc(OC)ccc4c3)NC(=O)C(C)c3ccc4cc(OC)ccc4c3)C(=O)NCCCCC(NC(=O)C(CCCCNC(=O)C(CCCCNC(=O)C(C)c3ccc4cc(OC)ccc4c3)NC(=O)C(C)c3ccc4cc(OC)ccc4c3)NC(=O)C(CCCCNC(=O)C(C)c3ccc4cc(OC)ccc4c3)NC(=O)C(C)c3ccc4cc(OC)ccc4c3)C(=O)OCc3ccccc3)ccc2c1 (stereo not drawn); 91.2
COc1ccc2cc(C(C)C(=O)OCCN(CCOC(=O)C(C)c3ccc4cc(OC)ccc4c3)CCC(=O)OCCN(CCOC(=O)CCN(CCOC(=O)C(C)c3ccc4cc(OC)ccc4c3)CCOC(=O)C(C)c3ccc4cc(OC)ccc4c3)CCC(=O)OCCN(CCOC(=O)CCN(CCOC(=O)CCN(CCOC(=O)C(C)c3ccc4cc(OC)ccc4c3)CCOC(=O)C(C)c3ccc4cc(OC)ccc4c3)CCOC(=O)CCN(CCOC(=O)C(C)c3ccc4cc(OC)ccc4c3)CCOC(=O)C(C)c3ccc4cc(OC)ccc4c3)CCC(=O)OCc3ccccc3)ccc2c1 (stereo not drawn); 97.3

For this molecule ( COc1ccc2cc(C(C)C(=O)OCC(COC(=O)C(C)c3ccc4cc(OC)ccc4c3)(COC(=O)C(C)c3ccc4cc(OC)ccc4c3)NC(=O)CCC(=O)OCC(COC(=O)CCC(=O)NC(COC(=O)C(C)c3ccc4cc(OC)ccc4c3)(COC(=O)C(C)c3ccc4cc(OC)ccc4c3)COC(=O)C(C)c3ccc4cc(OC)ccc4c3)(COC(=O)CCC(=O)NC(COC(=O)C(C)c3ccc4cc(OC)ccc4c3)(COC(=O)C(C)c3ccc4cc(OC)ccc4c3)COC(=O)C(C)c3ccc4cc(OC)ccc4c3)NC(=O)OCc3ccccc3)ccc2c1 (stereo not drawn) ), measured remaining at 48 h, 0.1 µM is 94.5

* * *

remaining at 48 h, 0.1 µM listing for selected compounds.
# experimental details: Chemical stability of the compound in phosphate buffer at pH 2 assessed as compound remaining at 0.1 uM after 48 hrs by RP-HPLC analysis
# Type: physicochemical
# test conditions: read-out: Stability
Answer as a quantity: numeral, then unit.

COc1ccc2cc(C(C)C(=O)NCCCCC(NC(=O)C(C)c3ccc4cc(OC)ccc4c3)C(=O)NCCCCC(NC(=O)C(CCCCNC(=O)C(C)c3ccc4cc(OC)ccc4c3)NC(=O)C(C)c3ccc4cc(OC)ccc4c3)C(=O)NCCCCC(NC(=O)C(CCCCNC(=O)C(CCCCNC(=O)C(C)c3ccc4cc(OC)ccc4c3)NC(=O)C(C)c3ccc4cc(OC)ccc4c3)NC(=O)C(CCCCNC(=O)C(C)c3ccc4cc(OC)ccc4c3)NC(=O)C(C)c3ccc4cc(OC)ccc4c3)C(=O)OCc3ccccc3)ccc2c1 (stereo not drawn); 97.1%
COc1ccc2cc(C(C)C(=O)OCCN(CCOC(=O)C(C)c3ccc4cc(OC)ccc4c3)CCC(=O)OCCN(CCOC(=O)CCN(CCOC(=O)C(C)c3ccc4cc(OC)ccc4c3)CCOC(=O)C(C)c3ccc4cc(OC)ccc4c3)CCC(=O)OCCN(CCOC(=O)CCN(CCOC(=O)CCN(CCOC(=O)C(C)c3ccc4cc(OC)ccc4c3)CCOC(=O)C(C)c3ccc4cc(OC)ccc4c3)CCOC(=O)CCN(CCOC(=O)C(C)c3ccc4cc(OC)ccc4c3)CCOC(=O)C(C)c3ccc4cc(OC)ccc4c3)CCC(=O)OCc3ccccc3)ccc2c1 (stereo not drawn); 95.7%

Now take the following compound into account.
Field remaining at 48 h, 0.1 µM (entry COc1ccc2cc(C(C)C(=O)OCC(COC(=O)C(C)c3ccc4cc(OC)ccc4c3)(COC(=O)C(C)c3ccc4cc(OC)ccc4c3)NC(=O)CCC(=O)OCC(COC(=O)CCC(=O)NC(COC(=O)C(C)c3ccc4cc(OC)ccc4c3)(COC(=O)C(C)c3ccc4cc(OC)ccc4c3)COC(=O)C(C)c3ccc4cc(OC)ccc4c3)(COC(=O)CCC(=O)NC(COC(=O)C(C)c3ccc4cc(OC)ccc4c3)(COC(=O)C(C)c3ccc4cc(OC)ccc4c3)COC(=O)C(C)c3ccc4cc(OC)ccc4c3)NC(=O)OCc3ccccc3)ccc2c1 (stereo not drawn) ) reads 97.2%

* * *

# experimental details: Chemical stability of the compound in phosphate buffer at pH 2 assessed as compound remaining at 0.1 uM after 240 hrs by RP-HPLC analysis
# Format: physicochemical
# test conditions: read-out: Stability
// remaining at 240 h, 0.1 µM lookup, one value per entry
Please give a number only; it is taken to be in %.

COc1ccc2cc(C(C)C(=O)OCCN(CCOC(=O)C(C)c3ccc4cc(OC)ccc4c3)CCC(=O)OCCN(CCOC(=O)CCN(CCOC(=O)C(C)c3ccc4cc(OC)ccc4c3)CCOC(=O)C(C)c3ccc4cc(OC)ccc4c3)CCC(=O)OCCN(CCOC(=O)CCN(CCOC(=O)CCN(CCOC(=O)C(C)c3ccc4cc(OC)ccc4c3)CCOC(=O)C(C)c3ccc4cc(OC)ccc4c3)CCOC(=O)CCN(CCOC(=O)C(C)c3ccc4cc(OC)ccc4c3)CCOC(=O)C(C)c3ccc4cc(OC)ccc4c3)CCC(=O)OCc3ccccc3)ccc2c1 (stereo not drawn); 72.3
COc1ccc2cc(C(C)C(=O)OCC(COC(=O)C(C)c3ccc4cc(OC)ccc4c3)(COC(=O)C(C)c3ccc4cc(OC)ccc4c3)NC(=O)CCC(=O)OCC(COC(=O)CCC(=O)NC(COC(=O)C(C)c3ccc4cc(OC)ccc4c3)(COC(=O)C(C)c3ccc4cc(OC)ccc4c3)COC(=O)C(C)c3ccc4cc(OC)ccc4c3)(COC(=O)CCC(=O)NC(COC(=O)C(C)c3ccc4cc(OC)ccc4c3)(COC(=O)C(C)c3ccc4cc(OC)ccc4c3)COC(=O)C(C)c3ccc4cc(OC)ccc4c3)NC(=O)OCc3ccccc3)ccc2c1 (stereo not drawn); 89.9

// moving on: another record for remaining at 240 h, 0.1 µM
The compound COc1ccc2cc(C(C)C(=O)NCCCCC(NC(=O)C(C)c3ccc4cc(OC)ccc4c3)C(=O)NCCCCC(NC(=O)C(CCCCNC(=O)C(C)c3ccc4cc(OC)ccc4c3)NC(=O)C(C)c3ccc4cc(OC)ccc4c3)C(=O)NCCCCC(NC(=O)C(CCCCNC(=O)C(CCCCNC(=O)C(C)c3ccc4cc(OC)ccc4c3)NC(=O)C(C)c3ccc4cc(OC)ccc4c3)NC(=O)C(CCCCNC(=O)C(C)c3ccc4cc(OC)ccc4c3)NC(=O)C(C)c3ccc4cc(OC)ccc4c3)C(=O)OCc3ccccc3)ccc2c1 (stereo not drawn) showed remaining at 240 h, 0.1 µM equal to 93.1

* * *

# experimental details: Chemical stability of the compound in phosphate buffer at pH 7 assessed as compound remaining at 0.1 uM after 48 hrs by RP-HPLC analysis
# Format: physicochemical
# test conditions: read-out: Stability
recorded endpoint: remaining at 48 h, 0.1 µM

Check out these entries, answers already filled in.
COc1ccc2cc(C(C)C(=O)OCCN(CCOC(=O)C(C)c3ccc4cc(OC)ccc4c3)CCC(=O)OCCN(CCOC(=O)CCN(CCOC(=O)C(C)c3ccc4cc(OC)ccc4c3)CCOC(=O)C(C)c3ccc4cc(OC)ccc4c3)CCC(=O)OCCN(CCOC(=O)CCN(CCOC(=O)CCN(CCOC(=O)C(C)c3ccc4cc(OC)ccc4c3)CCOC(=O)C(C)c3ccc4cc(OC)ccc4c3)CCOC(=O)CCN(CCOC(=O)C(C)c3ccc4cc(OC)ccc4c3)CCOC(=O)C(C)c3ccc4cc(OC)ccc4c3)CCC(=O)OCc3ccccc3)ccc2c1 (stereo not drawn); 96.2%
COc1ccc2cc(C(C)C(=O)NCCCCC(NC(=O)C(C)c3ccc4cc(OC)ccc4c3)C(=O)NCCCCC(NC(=O)C(CCCCNC(=O)C(C)c3ccc4cc(OC)ccc4c3)NC(=O)C(C)c3ccc4cc(OC)ccc4c3)C(=O)NCCCCC(NC(=O)C(CCCCNC(=O)C(CCCCNC(=O)C(C)c3ccc4cc(OC)ccc4c3)NC(=O)C(C)c3ccc4cc(OC)ccc4c3)NC(=O)C(CCCCNC(=O)C(C)c3ccc4cc(OC)ccc4c3)NC(=O)C(C)c3ccc4cc(OC)ccc4c3)C(=O)OCc3ccccc3)ccc2c1 (stereo not drawn); 97.6%

Recorded remaining at 48 h, 0.1 µM (compound COc1ccc2cc(C(C)C(=O)OCC(COC(=O)C(C)c3ccc4cc(OC)ccc4c3)(COC(=O)C(C)c3ccc4cc(OC)ccc4c3)NC(=O)CCC(=O)OCC(COC(=O)CCC(=O)NC(COC(=O)C(C)c3ccc4cc(OC)ccc4c3)(COC(=O)C(C)c3ccc4cc(OC)ccc4c3)COC(=O)C(C)c3ccc4cc(OC)ccc4c3)(COC(=O)CCC(=O)NC(COC(=O)C(C)c3ccc4cc(OC)ccc4c3)(COC(=O)C(C)c3ccc4cc(OC)ccc4c3)COC(=O)C(C)c3ccc4cc(OC)ccc4c3)NC(=O)OCc3ccccc3)ccc2c1 (stereo not drawn) ): 99.1%
